Each record here notes measured fluorescence slope.
Molecular target: Voltage-gated potassium channel subunit beta-2 (Rattus norvegicus)
Test: inhibitors of rat Kvbeta2 reductase activity – biochemical, NADPH fluorescence, primary screen (AID 622);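 further: slope of raw intensity against log time taken from 70 to 1610 s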
Details: recombinant KvBeta, 4-cyanobenzaldehyde reduction, at 10 µM, stronger effect = higher value
Calls of active or inactive are those of the source.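 How the source made its calls: active means fluorescence slope higher than the sample average by over 3 SD (cut at about -0.22 in these data, passing the limit was not always enough); inactive means the rest.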

# molecule, fluorescence slope
data = [
    ("CC(C)Cn1c(N)c(C(=O)NCc2cccs2)c2nc3ccccc3nc21", "-0.474 (inactive)"),
    ("CCCCOC(=O)n1c(SCC(=O)N(CC)CC)nc2ccccc21", "-0.585 (inactive)"),
    ("c1ccc(N2CCN(Cc3ccnc4ccccc34)CC2)cc1", "-0.477 (inactive)"),
    ("Cn1cnc2cc(NC(=O)c3ccc(Cl)cc3)ccc21", "-0.387 (inactive)"),
    ("Cn1cc(CN2CCc3ccccc3C2)c2ccccc21", "-0.408 (inactive)"),
    ("Cc1ccc2[nH]c(=O)c(-c3noc(-c4ccncc4)n3)cc2c1", "-0.31 (inactive)"),
    ("Cc1ccc(Br)cc1S(=O)(=O)N1CCN(c2ccccc2)CC1", "-0.463 (inactive)"),
    ("Cc1oc(-c2ccccc2Cl)nc1CSCC(=O)N1CCCC1", "-0.572 (inactive)"),
    ("CC(C)C(C(=O)Nc1ccc2c(c1)OCCO2)N1C(=O)c2ccccc2C1=O (stereo not given)", "-0.3 (inactive)"),
    ("CN(C)S(=O)(=O)c1ccc2c(c1)c(=O)c(C(=O)NCCCN1CCCCCC1)cn2C", "-0.601 (inactive)"),
    ("COc1ccccc1N1CCN(Cc2nc(N)nc(Nc3ccc(C)c(Cl)c3)n2)CC1", "-0.501 (inactive)"),
    ("Cc1c(NC(=O)CSc2nnc3sc4ccccc4n23)c(=O)n(-c2ccccc2)n1C", "-0.555 (inactive)"),
    ("O=C(c1ccccc1)N1CCN(Cc2ccccc2Br)CC1", "-0.428 (inactive)"),
    ("COc1cccc(N2CCN(CC(=O)Nc3nnc(-c4ccccc4)s3)CC2)c1", "-0.472 (inactive)"),
    ("CC(C)Oc1cc2oc(=O)c3c(c2cc1Cl)CCC3", "-0.445 (inactive)"),
]

* * *

Each record here notes measured inhibition.
Test: blockers of RIG-like receptor reporter activation – cell-based, Sendai virus stimulus, luciferase, 10K MLSCN set, TLR/RLR signaling modifier project, primary screen (AID 602276);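 further: firefly luciferase from ISG56 promoter only with Renilla not read in this screen; 0% = Sendai virus plus DMSO and 100% = medium plus DMSO without virus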
Details: HEK293 RL24 IRF3 luciferase reporter, at 10 µM, stronger effect = higher value
measurement kind: inhibition (%)

# entry smiles, measured
data = [
    ("CCc1nnc(NC(=O)CSc2nnc3scc(-c4ccc(C)cc4)n23)s1", 14.5),
    ("COc1ccc(C(=O)Cn2nnc(-c3cccs3)n2)cc1", -2.35),
    ("COc1ccccc1N1CCN(C(=O)CN(Cc2ccc(Cl)cc2)S(C)(=O)=O)CC1", 17.3),
]

* * *

Test: endothelial E-selectin expression blockers – imaging, HUVEC, immunofluorescence, MLSMR starter and 10KST1 sets, primary screen (AID 487);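 further: 100% = median nuclei count of all wells on the same plate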
Conditions: HUVEC TNFalpha-induced E-selectin immunofluorescence imaging, at 2 µM; measured here: cell number, toxicity
Each record here notes measured nuclei count.

# compound, nuclei count / %
data = [
    ("C=CCn1c(CC#N)nnc1N1CCOCC1", 118),
    ("CC(NS(=O)(=O)c1ccc(F)cc1)C(c1cccs1)N1CCN(C)CC1 (stereo not given)", 105),
    ("NCCN1CCN(CCN)CC1", 132),
    ("O=C(CCn1c(=O)oc2ccccc21)N1CCCCCC1", 123),
    ("O=C(CN1CCCN(S(=O)(=O)c2ccc(F)cc2)CC1)Nc1ccccc1Br", 118),
    ("COc1cc(Br)cc(/C=N/c2ncn[nH]2)c1O", 117),
    ("COc1ccccc1C(=O)Nc1ccc(S(=O)(=O)N2CCCC2)cc1", 108),
    ("COc1cccc(Oc2cnc(N)nc2-c2ccc(OC)cc2O)c1", 87.8),
    ("CC(=O)c1ccc(OCC(O)CN2CCN(CCO)CC2)cc1 (stereo not given)", 113),
    ("CCSc1nnc(NC(=O)c2ccccn2)s1", 102),
]

Data origin: PubChem BioAssay
